// data source = ChEMBL document CHEMBL6127079

Tested on: Candida albicans
Experiment: Antifungal activity against micafungin-resistant Candida albicans ATCC 76615 assessed as inhibition of fungal growth incubated for 24 to 72 hrs
Type: functional
Details: time 24-72 hrs
*1 amine or outer side, *2 acyl side, *3 side chain or, on linkers, in order; H or OH if unused. Where a SMILES comes first, the peptide text is derived from it. Bridges are numbered along the chain shown (N, C = ends). [ ]: non-standard residue; d: D form. The star is where a group is joined. hTyr(3S-OH,4S-OH,3'-OSO3H) = N[C@H](C(=O)O)[C@H](O)[C@@H](O)c1ccc(O)c(OS(=O)(=O)O)c1; Orn(4R-OH,5R-OH) = O=C([C@H](C[C@@H](O)[C@@H](O)N[*:3])N[*:1])[*:2]; Pro(3S-OH,4S-Me) = C[C@H]1CN[C@H](C(=O)O)[C@H]1O; X1 = CCCCCOc1ccc(-c2cc(-c3ccc(C(=O)*)cc3)no2)cc1; Gln(3R-OH) = NC(=O)C[C@@H](O)[C@H](N)C(=O)O; Hyp = O=C(O)[C@@H]1C[C@@H](O)CN1
observed.property: MIC (µg/mL)
Report the value in µg/mL with no unit label.

{"compound": "Cc1ccc(NC(=O)/C=C/C(=O)Nc2ccc3c(c2)NC(=O)C2(CCNC2=O)C3)cc1 (racemic)", "value.measured": 64}
{"compound": "O=C(CN1CCC(C(=O)Nc2ccc(Br)cc2)CC1)Nc1ccc2c(c1)NC(=O)C1(CCNC1=O)C2 (racemic)", "value.measured": 32}
{"compound": "CCCCCOc1ccc(-c2cc(-c3ccc(C(=O)N[C@H]4C[C@@H](O)[C@@H](O)NC(=O)[C@@H]5[C@@H](O)[C@@H](C)CN5C(=O)[C@H]([C@H](O)CC(N)=O)NC(=O)[C@H]([C@H](O)[C@@H](O)c5ccc(O)c(OS(=O)(=O)O)c5)NC(=O)[C@@H]5C[C@@H](O)CN5C(=O)[C@H]([C@@H](C)O)NC4=O)cc3)no2)cc1 [MICAFUNGIN] (X1-[Orn(4R-OH,5R-OH)]T[Hyp][hTyr(3S-OH,4S-OH,3'-OSO3H)][Gln(3R-OH)][Pro(3S-OH,4S-Me)]; lactam 1-C)", "value.measured": 256}
{"compound": "O=C(/C=C/C(=O)Nc1cccc2ccccc12)Nc1ccc2c(c1)NC(=O)C1(CCNC1=O)C2 (racemic)", "value.measured": 32}

Data request: Any idea what MIC came out for Cc1cc([N+](=O)[O-])ccc1NC(=O)C1CCN(CC(=O)Nc2ccc3c(c2)NC(=O)C2(CCNC2=O)C3)CC1 (racemic) on Candida albicans?
Data returned: 64

----------
Reported values of MIC for individual entries
System: Candida albicans
Assay: Antifungal activity against Candida albicans ATCC 76615 incubated for 24 hrs by half broth dilution based checkerboard method
Format: functional
A number alone suffices; assume µg/mL.

{"molecule": "Cc1ccc(NC(=O)/C=C/C(=O)Nc2ccc3c(c2)NC(=O)C2(CCNC2=O)C3)cc1 (racemic)", "value.measured": 8}

Data request: Name the recorded MIC for O=C(/C=C/C(=O)Nc1ccc2c(c1)NC(=O)C1(CCNC1=O)C2)Nc1ccc(Br)cc1 (racemic) .
Data returned: 4

Data request: Can you share its MIC? I mean this molecule: O=C(/C=C/C(=O)Nc1cccc2ccccc12)Nc1ccc2c(c1)NC(=O)C1(CCNC1=O)C2 (racemic)
Data returned: 4

Data request: # lookup: MIC of Cc1cc([N+](=O)[O-])ccc1NC(=O)C1CCN(CC(=O)Nc2ccc3c(c2)NC(=O)C2(CCNC2=O)C3)CC1 (racemic)
Data returned: 8

Data request: Name the reported MIC value associated with the molecule `OC(Cn1cncn1)(Cn1cncn1)c1ccc(F)cc1F`
Data returned: 8
